Measured values drawn from patent US9073858B2 for this set.

- system: EGFR (Homo sapiens, UniProt P00533)
- Construct: endogenous in cells; host or cells: A431 cells (ATCC CRL-1555)
- Sequence (P00533 25-1210): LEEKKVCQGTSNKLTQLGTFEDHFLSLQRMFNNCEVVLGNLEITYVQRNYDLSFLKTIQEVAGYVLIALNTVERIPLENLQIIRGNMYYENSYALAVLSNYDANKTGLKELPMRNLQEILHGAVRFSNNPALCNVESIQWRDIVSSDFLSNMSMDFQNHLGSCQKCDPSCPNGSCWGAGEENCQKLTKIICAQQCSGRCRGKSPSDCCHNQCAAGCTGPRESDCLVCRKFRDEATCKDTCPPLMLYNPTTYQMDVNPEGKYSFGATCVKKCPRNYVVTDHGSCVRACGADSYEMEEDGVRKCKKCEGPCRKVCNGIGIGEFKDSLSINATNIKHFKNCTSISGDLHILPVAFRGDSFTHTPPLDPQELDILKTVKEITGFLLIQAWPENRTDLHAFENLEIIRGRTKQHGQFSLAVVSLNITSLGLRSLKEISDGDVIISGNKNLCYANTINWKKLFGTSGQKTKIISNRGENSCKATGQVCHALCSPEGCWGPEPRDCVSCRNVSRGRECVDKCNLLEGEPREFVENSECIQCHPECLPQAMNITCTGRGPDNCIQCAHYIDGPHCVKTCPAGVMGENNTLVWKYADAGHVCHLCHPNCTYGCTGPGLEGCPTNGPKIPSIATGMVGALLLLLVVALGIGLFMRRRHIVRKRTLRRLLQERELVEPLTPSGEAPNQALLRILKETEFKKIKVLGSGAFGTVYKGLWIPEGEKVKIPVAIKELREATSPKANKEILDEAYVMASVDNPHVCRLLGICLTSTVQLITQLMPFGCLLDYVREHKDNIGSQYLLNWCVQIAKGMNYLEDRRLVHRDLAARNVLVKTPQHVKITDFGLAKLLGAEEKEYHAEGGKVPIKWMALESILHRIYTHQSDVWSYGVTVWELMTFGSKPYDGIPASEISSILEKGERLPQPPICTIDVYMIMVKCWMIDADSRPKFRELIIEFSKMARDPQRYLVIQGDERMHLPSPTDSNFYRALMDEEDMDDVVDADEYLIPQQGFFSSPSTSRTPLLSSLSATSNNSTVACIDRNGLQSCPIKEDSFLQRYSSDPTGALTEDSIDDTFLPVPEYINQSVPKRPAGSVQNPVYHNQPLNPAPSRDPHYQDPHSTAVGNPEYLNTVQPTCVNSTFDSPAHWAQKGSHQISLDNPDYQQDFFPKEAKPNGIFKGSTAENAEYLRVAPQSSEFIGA
- assay text: EGFR in-cell Western (ICW) screening protocol
- Assay type: cell-based
- Set-up: unit not given here
- recorded conditions: initial screen
# reported ICW Screen; entries follow
measured quantity: ICW Screen

compound="Oc1c(C(Nc2ccccn2)c2ccsc2)ccc2cccnc12 (stereo not drawn) [compound 10957]" measured_quantity="ICW Screen" numeric_value=49.8
compound="CCOc1ccc(C(Nc2cccnc2)c2cc(Cl)c3cccnc3c2O)cc1 (stereo not drawn) [compound 10945]" measured_quantity="ICW Screen" numeric_value=82.22
compound="Oc1cccnc1NC(c1ccc(F)cc1)c1ccc2cccnc2c1O (stereo not drawn) [compound 10509]" measured_quantity="ICW Screen" numeric_value=31.55
compound="Cc1ccnc(NC(c2ccccc2F)c2ccc3cccnc3c2O)c1 (stereo not drawn) [compound 10488]" measured_quantity="ICW Screen" numeric_value=15.95
compound="Oc1c(C(c2ccccn2)N2CCN(Cc3ccccc3)CC2)ccc2cccnc12 (stereo not drawn) [compound 10534]" measured_quantity="ICW Screen" numeric_value=28.31
compound="Cc1cccc(NC(c2ccc(C(F)(F)F)cc2)c2ccc3cccnc3c2O)n1 (stereo not drawn) [compound 10628]" measured_quantity="ICW Screen" numeric_value=30.02
compound="CN1CCN(C(c2ccccn2)c2ccc3cccnc3c2O)CC1 (stereo not drawn) [compound 10548]" measured_quantity="ICW Screen" numeric_value=31.03
compound="Oc1c(C(Nc2ccccn2)c2ccccn2)cc(Cl)c2cccnc12 (stereo not drawn) [compound 10954]" measured_quantity="ICW Screen" numeric_value=31.09
compound="Oc1c(C(Nc2ccccn2)c2ccc(Cl)cc2Cl)ccc2cccnc12 (stereo not drawn) [compound 10484]" measured_quantity="ICW Screen" numeric_value=26.3

---

# reported Tmax; entries follow
- assay text: Pharmacokinetics, intravenous and oral dose
- Parameters: species or system male CD-1 mice
- recorded conditions: mouse, in vivo, po, 5 mg/kg, male CD-1 mice; read-out: Tmax
measured quantity: Tmax (min)

compound="Cc1cc(Cl)cnc1NC(c1ccc(Cl)cc1Cl)c1ccc2cccnc2c1O (centres unmarked) [AD4-13130]" numeric_value=60
compound="Cc1c(Cl)cnc(NC(c2cccc(Cl)c2Cl)c2ccc3cccnc3c2O)c1F (centres unmarked) [AD4-13192]" numeric_value=30

---

- assay text: Stability on incubation with human liver microsomes (HLM)
- Format: in vitro ADME
- recorded conditions: percentage left after incubation with human liver microsomes for 30 minutes
Kindly note that classification relies on HLM % Remaining@ 30 Min with these boundaries: low class (below 80%), middle class (80% to below 90%), high class (90% or more)

compound="Oc1c(C(Nc2ccc(C(F)(F)F)cn2)c2ccc(F)cc2F)ccc2cccnc12 (stereo not drawn) [AD4-13029]" cat="low class"
compound="Cc1c(Cl)cnc(NC(c2ccc(Cl)cc2Cl)c2ccc3cccnc3c2O)c1F (stereo not drawn) [AD4-13199]" cat="high class"
compound="Cc1ccnc(NC(c2ccc(Cl)c(Cl)c2)c2ccc3cccnc3c2O)c1 (stereo not drawn) [AD4-12917]" cat="low class"
compound="Oc1c(C(Nc2ccc(Cl)cn2)c2cccc(Cl)c2Cl)ccc2cccnc12 (stereo not drawn) [AD4-13086]" cat="low class"
compound="COc1ccc(C(Nc2cccc(C)n2)c2ccc3cccnc3c2O)cc1O (stereo not drawn) [AD4-12909]" cat="low class"
compound="Oc1c(C(Nc2ccc(Cl)cn2)c2cc(Cl)cc(Cl)c2)ccc2cccnc12 (stereo not drawn) [AD4-13094]" cat="middle class"
compound="Cc1cccc(NC(c2cc(Cl)cc(Cl)c2Cl)c2ccc3cccnc3c2O)n1 (stereo not drawn) [AD4-13023]" cat="high class"
compound="Cc1ccnc(NC(c2cc(Cl)cc(Cl)c2)c2ccc3cccnc3c2O)c1 (stereo not drawn) [AD4-12915]" cat="low class"
compound="Oc1c(C(Nc2cc(Cl)c(Cl)cn2)c2ccc(Cl)c(Cl)c2)ccc2cccnc12 (stereo not drawn) [AD4-13177]" cat="middle class"
compound="Cc1cc(Cl)cnc1NC(c1ccc(C(F)(F)F)cc1F)c1ccc2cccnc2c1O (stereo not drawn) [AD4-13042]" cat="high class"
compound="Cc1cccc(NC(c2ccc(Cl)cc2Cl)c2ccc3cccnc3c2O)n1 (stereo not drawn) [AD4-12911]" cat="low class"
compound="Oc1c(C(Nc2cc(Cl)c(Cl)cn2)c2ccc(F)cc2Cl)ccc2cccnc12 (stereo not drawn) [AD4-13185]" cat="high class"
compound="Oc1c(C(Nc2ccc(C(F)(F)F)cn2)c2ccc(C(F)(F)F)cc2F)ccc2cccnc12 (stereo not drawn) [AD4-13031]" cat="high class"
compound="Cc1cc(NC(c2ccc(Cl)c(Cl)c2)c2ccc3cccnc3c2O)ncc1Cl (stereo not drawn) [AD4-13166]" cat="high class"
compound="Oc1c(C(Nc2ccc(C(F)(F)F)nc2)c2ccc(C(F)(F)F)cc2F)ccc2cccnc12 (stereo not drawn) [AD4-13065]" cat="middle class"

---

# reported IC50; entries follow
- System: MDBK line
- assay text: MTT Cell Proliferation Assay, MDBK line
- Type: cell-based, bovine
- recorded conditions: Bos taurus, MDBK, 72 h; second value of A431/MDBK pair; read-out: MTT-72 h MDBK
measured quantity: IC50 (µM)

molecule="CN1CCN(C(c2ccccn2)c2ccc3cccnc3c2O)CC1 (stereo not drawn) [compound 10548]" measured_quantity=IC50 numeric_value=8.07
molecule="COc1ccc(NC(c2cccnc2)c2ccc3cccnc3c2O)cc1 (stereo not drawn) [compound 11152]" measured_quantity=IC50 numeric_value=8.24
molecule="CCOc1ccc(C(Nc2cc(C)ccn2)c2ccc3cccnc3c2O)cc1OCC (stereo not drawn) [compound 10143]" measured_quantity=IC50 numeric_value=4.33
molecule="Oc1c(C(Nc2cccnc2)c2cccs2)ccc2cccnc12 (stereo not drawn) [compound 10315]" measured_quantity=IC50 numeric_value=5.69
molecule="Cc1ccc(C)c(C(Nc2cccnc2)c2cc(Cl)c3cccnc3c2O)c1 (stereo not drawn) [compound 10944]" measured_quantity=IC50 numeric_value=2.96
molecule="COc1ccc(C(Nc2ccccn2)c2ccc3ccc(C)nc3c2O)cc1OC (stereo not drawn) [compound 10006]" measured_quantity=IC50 numeric_value=15.1
molecule="Oc1c(C(Nc2ccc(F)cc2)c2ccncc2)ccc2cccnc12 (stereo not drawn) [compound 11153]" measured_quantity=IC50 numeric_value=5.58
molecule="COc1ccc(C(NC(=O)C2CCCCC2)c2cc([N+](=O)[O-])c3cccnc3c2O)cc1OC (stereo not drawn) [compound 10940]" measured_quantity=IC50 numeric_value=16.6
molecule="CCOc1cc(C(NC(C)=O)c2cc([N+](=O)[O-])c3cccnc3c2O)ccc1O (stereo not drawn) [compound 10951]" measured_quantity=IC50 numeric_value=5.44

---

- system: EGFR (Homo sapiens, UniProt P00533)
- Construct: endogenous in cells; host or cells: A431 cells (ATCC CRL-1555)
- assay text: EGFR in-cell Western (ICW) screening protocol
- Type: cell-based
- Parameters: unit not given here
- recorded conditions: initial screen
Classification field: true = ICW Screen at or over 40; false = ICW Screen under 40.

compound="Oc1c(C(Nc2ccccn2)c2ccc(Br)cc2)ccc2cccnc12 (stereo not drawn) [compound 10048]" cat=true
compound="O=C(O)c1ccc(C(Nc2ccccn2)c2cc(Cl)c3cccnc3c2O)cc1 (stereo not drawn) [compound 10093]" cat=false
compound="Oc1c(C(Nc2ccccn2)c2cccc(Cl)c2Cl)ccc2cccnc12 (stereo not drawn) [compound 10051]" cat=false
compound="CCOc1cc(C(Nc2cc(C)ccn2)c2ccc3cccnc3c2O)ccc1OC (stereo not drawn) [compound 1991]" cat=true
compound="CCc1ccc(C(Nc2ccccn2)c2ccc3cccnc3c2O)cc1 (stereo not drawn) [compound 10041]" cat=true
compound="CCOc1ccc(C(Nc2cc(C)ccn2)c2ccc3cccnc3c2O)cc1OCC (stereo not drawn) [compound 10143]" cat=true
compound="Cc1cccc(NC(c2ccccc2F)c2ccc3cccnc3c2O)n1 (stereo not drawn) [compound 10015]" cat=false
compound="Cc1ccnc(NC(c2ccc3c(c2)OCO3)c2ccc3cccnc3c2O)c1 (stereo not drawn) [compound 10038]" cat=false
compound="Oc1c(C(Nc2ccccc2)c2ccccn2)ccc2cccnc12 (stereo not drawn) [compound 11018]" cat=false
compound="Cc1ccc2ccc(C(Nc3ccccn3)c3cccc(O)c3)c(O)c2n1 (stereo not drawn) [compound 1970]" cat=false
compound="Oc1c(C(Nc2ccccn2)c2ccc(OC(F)F)cc2)ccc2cccnc12 (stereo not drawn) [compound 10466]" cat=false
compound="Cc1ccc(C)c(C(Nc2cccnc2)c2cc(Cl)c3cccnc3c2O)c1 (stereo not drawn) [compound 10944]" cat=true
compound="Cc1cccc(NC(c2ccc3c(c2)OCO3)c2ccc3cccnc3c2O)n1 (stereo not drawn) [compound 10055]" cat=false
compound="COc1ccc(NC(c2cccnc2)c2ccc3cccnc3c2O)cc1 (stereo not drawn) [compound 11152]" cat=true
compound="Cc1cccc(NC(c2ccc(O)cc2)c2ccc3ccc(C)nc3c2O)n1 (stereo not drawn) [compound 10037]" cat=false
compound="COc1ccc(C(Nc2cc(C)ccn2)c2ccc3cccnc3c2O)cc1OC (stereo not drawn) [compound 1969]" cat=false
compound="COc1ccc(C(NC(=O)C2CCCCC2)c2cc([N+](=O)[O-])c3cccnc3c2O)cc1OC (stereo not drawn) [compound 10940]" cat=false
compound="COc1ccc(Cl)cc1C(Nc1ccccn1)c1cc(Cl)c2cccnc2c1O (stereo not drawn) [compound 10943]" cat=true
compound="COC(=O)c1ccc(NC(c2cccs2)c2ccc3cccnc3c2O)cc1 (stereo not drawn) [compound 11015]" cat=true
compound="COc1ccc(C(NC(=O)c2cccnc2)c2cc(Cl)c3cccnc3c2O)cc1OC (stereo not drawn) [compound 10969]" cat=false
compound="COc1ccc(C(Nc2cc(C)ccn2)c2ccc3cccnc3c2O)cc1O (stereo not drawn) [compound 1978]" cat=true
compound="Cc1ccnc(NC(c2ccccn2)c2ccc3cccnc3c2O)c1 (stereo not drawn) [compound 10939]" cat=false
compound="Cc1ccc2ccc(C(Nc3ccccn3)c3sccc3C)c(O)c2n1 (stereo not drawn) [compound 10958]" cat=true
compound="COc1ccc(C)cc1NC(c1ccc(F)cc1)c1ccc2cccnc2c1O (stereo not drawn) [compound 11014]" cat=true
compound="Oc1ccccc1C(Nc1ccccn1)c1ccc2cccnc2c1O (stereo not drawn) [compound 10427]" cat=true
compound="COc1ccc(NC(c2ccccn2)c2ccc3cccnc3c2O)cc1 (stereo not drawn) [compound 11103]" cat=true
compound="Cc1cccc(NC(c2ccncc2)c2ccc3cccnc3c2O)n1 (stereo not drawn) [compound 10974]" cat=true
compound="Oc1c(C(Nc2ccccn2)c2ccccc2Br)cc(Cl)c2cccnc12 (stereo not drawn) [compound 10074]" cat=false
compound="Cc1cccc(NC(c2cccc(C)n2)c2ccc3ccc(C)nc3c2O)n1 (stereo not drawn) [compound 10976]" cat=false
compound="Cc1ccnc(NC(c2ccc3cccnc3c2O)c2sccc2C)c1 (stereo not drawn) [compound 10963]" cat=true
compound="Oc1ccccc1NC(c1cccnc1)c1ccc2cccnc2c1O (stereo not drawn) [compound 11151]" cat=false
compound="CCN(CC)c1ccc(C(Nc2ccccn2)c2ccc3cccnc3c2O)cc1 (stereo not drawn) [compound 10965]" cat=true
compound="Oc1c(C(Nc2nccs2)c2cccs2)ccc2cccnc12 (stereo not drawn) [compound 10602]" cat=true
compound="Oc1c(C(Nc2ccccn2)c2ccc(Cl)c(Cl)c2)ccc2cccnc12 (stereo not drawn) [compound 10109]" cat=false
compound="Cc1ccnc(NC(c2cccc(OCc3ccccc3)c2)c2ccc3cccnc3c2O)c1 (stereo not drawn) [compound 10053]" cat=false
